- system: hGIPR (Homo sapiens, UniProt P48546)
- Construct: expressed in transfected cells; host or cells: CHO cells carrying a CRE-luciferase reporter gene
- Sequence (P48546 22-466): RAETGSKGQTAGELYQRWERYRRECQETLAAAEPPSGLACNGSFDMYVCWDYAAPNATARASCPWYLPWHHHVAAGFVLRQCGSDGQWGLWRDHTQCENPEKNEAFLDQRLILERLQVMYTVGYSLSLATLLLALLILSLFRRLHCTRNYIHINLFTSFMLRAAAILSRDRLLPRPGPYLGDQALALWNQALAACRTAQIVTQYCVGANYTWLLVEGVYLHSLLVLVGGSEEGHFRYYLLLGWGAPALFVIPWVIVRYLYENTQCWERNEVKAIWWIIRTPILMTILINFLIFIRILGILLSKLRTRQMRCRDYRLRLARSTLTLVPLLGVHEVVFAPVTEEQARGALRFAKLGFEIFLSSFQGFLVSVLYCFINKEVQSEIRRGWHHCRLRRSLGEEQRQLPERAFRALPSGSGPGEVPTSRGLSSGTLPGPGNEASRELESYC
- assay-explanation: hGIPR CreLuc reporter gene assay in 0.5% and 100% plasma
- Assay type: cell-based
- experimental-parameters: CreLuc reporter gene assay, 100% human plasma; read-out: hGIPR 100% hP
- Procedure: Example 1: hGLPR/hGIPR/hNPY2R CreLuc Assay in 0.5% and 100% Plasma CHO and HEK-293 recombinant cell lines express a luciferase reporter gene under control of the cAMP responsive element (CRE). […] Following incubation, assay plates are equilibrated to room temperature, followed by addition of 25 μl of Bright-GIo™ Luciferase reagent, incubation at room temperature for 10 minutes and analysis of luminescence (Envision Reader). […]
Starred links: 1 amine or outer side, 2 acyl side, 3 side chain; linkers in the order of their positions; H or OH if unused. Non-standard residues stand in square brackets, D forms with d. Groups on a side chain read outwards from the residue. *: point of attachment. C20 diacid = O=C(O)CCCCCCCCCCCCCCCCCCC(=O)*; C18 diacid = O=C(O)CCCCCCCCCCCCCCCCC(=O)*; γGlu = O=C(O)[C@H](CCC(=O)[*:2])N[*:1]; εLys = N[C@@H](CCCCN[*:1])C(=O)[*:2]; Aib = CC(C)(N)C(=O)O; Ahx = NCCCCCC(=O)O
parameter-measured: EC50 (nM)

{"columns": ["substance", "number"],
 "data": [
  ["H-Y[Aib]EGTFTSDYSI[Aib]LEEQAQ[Aib]AFVEWLIK([εLys-γGlu-γGlu-γGlu-γGlu-γGlu-γGlu-C20 diacid])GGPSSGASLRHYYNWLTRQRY-NH2 [Compound 116]", 3.01],
  ["H-Y[Aib]EGTFTSDYSI[Aib]LEKQAQ[Aib]AFVQWLIK([Ahx-γGlu-γGlu-γGlu-γGlu-γGlu-C18 diacid])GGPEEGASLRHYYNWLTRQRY-NH2 [Compound 162]", 1.61],
  ["H-Y[Aib]EGTFTSDYSI[Aib]LEKQAQ[Aib]AFVEWLIK([εLys-γGlu-γGlu-γGlu-γGlu-γGlu-γGlu-C20 diacid])GGPSSPESLRHYYNWLTRQRY-NH2 [Compound 73]", 1.61]
]}
